Assay: Half-life time in rat was determined
Format: ADME, organism-based
Details: in vivo
property: half-life

Query: half-life; subject: `Cn1cncc1CN(Cc1cccc(C#N)c1)c1ccc(C#N)c(-c2cccc3ccccc23)c1`
< 60 min

====

So I've got a bunch of compounds here, and I need their IC50 values.
Target: Geranylgeranyl transferase type I (Bos taurus, UniProt P29702+Q5EAD5)
Test: In vitro inhibition of geranylgeranyltransferase.
Numeric answer only, unit nM assumed.

Query: IC50; subject: `Cc1ccccc1-c1cc(N(Cc2cccc(C#N)c2)Cc2cncn2C)ccc1C#N`
1200

Query: IC50; subject: `Cn1cncc1CN(Cc1cccc(Cl)c1)c1ccc(C#N)c(-c2cccc3ccccc23)c1`
230

Query: IC50; subject: `Cn1cncc1CN(c1ccc(C#N)c(-c2cccc3ccccc23)c1)S(=O)(=O)c1ccccc1`
1900

Query: IC50; subject: `Cn1cncc1CN(c1ccc(C#N)c(-c2cccc3ccccc23)c1)C1CCCCC1`
180

Query: IC50; subject: `Cn1cncc1CN(C(=O)c1ccccc1)c1ccc(C#N)c(-c2cccc3ccccc23)c1`
310

Query: IC50; subject: `Cc1ccccc1-c1cc(N(Cc2ccc(C#N)cc2)Cc2cncn2C)ccc1C#N`
1000

Query: IC50; subject: `Cn1cncc1CN(Cc1ccnc(C#N)c1)c1ccc(C#N)c(-c2cccc3ccccc23)c1`
650

Query: IC50; subject: `Cn1cncc1CN(Cc1ccc(C#N)cc1)c1ccc(C#N)c(-c2cccc3ccccc23)c1`
1000

Query: IC50; subject: `Cn1cncc1CN(Cc1cccc(C#N)c1)c1ccc(C#N)c(-c2cccc3ccccc23)c1`
150

====

So I've got a bunch of compounds here, and I need their IC50 values.
Target: Protein farnesyltransferase (Bos taurus, UniProt P29702+P49355)
Assay: In vitro inhibitory activity against farnesyltransferase (FTase)
The answer consists of two parts: a number and, after it, its unit.

Protein farnesyltransferase (Bos taurus, UniProt P29702+P49355) / IC50 / `Cn1cncc1CN(Cc1ccnc(C#N)c1)c1ccc(C#N)c(-c2cccc3ccccc23)c1` : value?
0.37 nM

Protein farnesyltransferase (Bos taurus, UniProt P29702+P49355) / IC50 / `Cc1ccccc1-c1cc(N(Cc2ccc(C#N)cc2)Cc2cncn2C)ccc1C#N` : value?
10 nM

Protein farnesyltransferase (Bos taurus, UniProt P29702+P49355) / IC50 / `Cc1ccccc1-c1cc(N(Cc2ccccc2)Cc2cnc[nH]2)ccc1C#N` : value?
84 nM

Protein farnesyltransferase (Bos taurus, UniProt P29702+P49355) / IC50 / `Cn1cncc1CN(c1ccc(C#N)c(-c2cccc3ccccc23)c1)S(=O)(=O)c1ccccc1` : value?
18 nM

Protein farnesyltransferase (Bos taurus, UniProt P29702+P49355) / IC50 / Cc1ccccc1-c1cc(C(OCc2ccccc2)c2cncn2C)ccc1C#N (stereo not given) : value?
65 nM

Protein farnesyltransferase (Bos taurus, UniProt P29702+P49355) / IC50 / `Cc1ccccc1-c1cc(NCc2cncn2C)ccc1C#N` : value?
1000 nM

Protein farnesyltransferase (Bos taurus, UniProt P29702+P49355) / IC50 / `Cn1cncc1CN(c1ccc(C#N)c(-c2cccc3ccccc23)c1)C1CCCCC1` : value?
1.9 nM

Protein farnesyltransferase (Bos taurus, UniProt P29702+P49355) / IC50 / NC(=O)N1CCC(CC(=O)N2CCC([C@H]3c4ncc(Br)cc4CCc4cc(Cl)cc(Br)c43)CC2)CC1 [LONAFARNIB] : value?
7.8 nM

Protein farnesyltransferase (Bos taurus, UniProt P29702+P49355) / IC50 / Cn1cncc1[C@@](N)(c1ccc(Cl)cc1)c1ccc2c(c1)c(-c1cccc(Cl)c1)cc(=O)n2C [TIPIFARNIB] : value?
0.57 nM

Protein farnesyltransferase (Bos taurus, UniProt P29702+P49355) / IC50 / `Cc1ccccc1-c1cc(N(Cc2cccc(C#N)c2)Cc2cncn2C)ccc1C#N` : value?
0.97 nM

Protein farnesyltransferase (Bos taurus, UniProt P29702+P49355) / IC50 / `Cn1cncc1CN(Cc1ccc(C#N)cc1)c1ccc(C#N)c(-c2cccc3ccccc23)c1` : value?
1.5 nM

Protein farnesyltransferase (Bos taurus, UniProt P29702+P49355) / IC50 / `Cn1cncc1CN(Cc1cccc(Cl)c1)c1ccc(C#N)c(-c2cccc3ccccc23)c1` : value?
0.45 nM

Protein farnesyltransferase (Bos taurus, UniProt P29702+P49355) / IC50 / `Cn1cncc1CN(C(=O)c1ccccc1)c1ccc(C#N)c(-c2cccc3ccccc23)c1` : value?
14 nM

Protein farnesyltransferase (Bos taurus, UniProt P29702+P49355) / IC50 / `CCCCN(CCC1CCCCC1)Cc1ccc(C(=O)N[C@@H](CCSC)C(=O)O)c(-c2ccccc2C)c1` : value?
1 nM

Protein farnesyltransferase (Bos taurus, UniProt P29702+P49355) / IC50 / `Cc1ccccc1-c1cc(N(Cc2ccccc2)Cc2cncn2C)ccc1C#N` : value?
11 nM

====

Assay: Oral bioavailability in rat
Type: ADME, organism-based
Settings: in vivo
property: bioavailability (%)
Numeric answer only, unit % assumed.

Query: bioavailability; subject: `Cn1cncc1CN(Cc1cccc(C#N)c1)c1ccc(C#N)c(-c2cccc3ccccc23)c1`
10
